- System name: T1, human β-klotho with a C-terminal FLAG tag, stably expressed in a clonal HEK-293 cell line (human, UniProt Q86Z14 1-1044)
- T1 sequence: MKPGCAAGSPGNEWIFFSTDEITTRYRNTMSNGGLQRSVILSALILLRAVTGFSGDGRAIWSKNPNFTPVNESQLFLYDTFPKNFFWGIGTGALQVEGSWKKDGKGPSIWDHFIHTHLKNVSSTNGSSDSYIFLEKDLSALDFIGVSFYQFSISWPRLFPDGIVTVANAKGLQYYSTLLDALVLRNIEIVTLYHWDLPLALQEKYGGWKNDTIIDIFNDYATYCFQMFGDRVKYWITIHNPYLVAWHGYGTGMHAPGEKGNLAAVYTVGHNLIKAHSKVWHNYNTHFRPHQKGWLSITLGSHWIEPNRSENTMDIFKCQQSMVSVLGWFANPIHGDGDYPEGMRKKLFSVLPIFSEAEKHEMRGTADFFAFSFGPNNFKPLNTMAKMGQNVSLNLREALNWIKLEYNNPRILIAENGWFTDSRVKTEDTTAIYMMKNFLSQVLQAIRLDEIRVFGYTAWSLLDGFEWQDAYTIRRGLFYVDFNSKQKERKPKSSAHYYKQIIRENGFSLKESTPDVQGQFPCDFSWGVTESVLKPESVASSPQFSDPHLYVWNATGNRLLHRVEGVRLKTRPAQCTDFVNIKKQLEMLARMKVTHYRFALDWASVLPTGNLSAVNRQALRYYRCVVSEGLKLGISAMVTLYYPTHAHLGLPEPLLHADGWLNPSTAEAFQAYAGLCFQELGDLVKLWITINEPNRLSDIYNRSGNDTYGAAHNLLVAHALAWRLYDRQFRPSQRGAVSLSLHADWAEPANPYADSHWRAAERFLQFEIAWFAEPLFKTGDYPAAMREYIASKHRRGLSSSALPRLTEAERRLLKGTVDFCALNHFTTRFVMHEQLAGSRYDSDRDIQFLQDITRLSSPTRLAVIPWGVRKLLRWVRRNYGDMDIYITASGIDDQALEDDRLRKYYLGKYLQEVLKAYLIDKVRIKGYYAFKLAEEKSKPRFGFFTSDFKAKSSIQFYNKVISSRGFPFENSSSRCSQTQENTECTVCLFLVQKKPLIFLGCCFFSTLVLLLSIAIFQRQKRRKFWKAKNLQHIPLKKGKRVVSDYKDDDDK
- Procedure text: cell-based or functional assay
Non-standard residues stand in square brackets, D forms with d. Phe(4-Ac) = CC(=O)c1ccc(C[C@H](N)C(=O)O)cc1
Quantity kind: pERK EC50 (nM)
Give bare numbers, in nM.

Solved entries (count: 3):
[
  {
    "Binder": "Compound 5 (ligand) MHPIPDSSPLLQFGGQVRQRYLYTDDAQQTEAHLEIREDGTVGGAADQSPESLLQLKALKPGVIQILGVKTSRFLCQRPDGALYGSLHFDPEACSFRELLLEDGYNVYQSEAHGLPLHLPGDKSRDPAPRGPARFLPLPGLPPAPPEPPGILAPQPPDVGSSDPLSMVEPSQGRSPSYAS",
    "Unit of measurement": "nM",
    "pERK EC50": 69.2
  },
  {
    "Binder": "Pegylated Compound 1 (ligand) MHPIPDSSPLLQFGGQVRQRYLYTDDAQQTEAHLEIREDGTVGGAADQSPESLLQLKALKPGVIQILGVKTSRFLCQRPDGALYGSLHFDPEACSFRELLLEDGYNVY[Phe(4-Ac)](PEG 30 kDa)SEAHGLPLHLPGNKSPHRDPAPRGPARFLPLPGLPPAPPEPPGILAPQPPDVGSSDPLSMVGPSQGRSPSYAS",
    "Unit of measurement": "nM",
    "pERK EC50": 6.7
  },
  {
    "Binder": "Compound 23 (ligand) MHPIPDSSPLLQFGGQVRQRYLYTDDAQQTEAHLEIREDGTVGGAADQSPESLLQLKALKPGVIQILGVKTSRFLCQRPDGALYGSLHFDPEACSFRELLLEDGYNVYQSEAHGLPLHLGGGPARFLPLPGLPPAPPEPPGILAPQPPDVGSSDPLSMVEPSQGRSPSYAS",
    "Unit of measurement": "nM",
    "pERK EC50": 30
  }
]

Kindly give each listed record's pERK EC50.
1. Compound 22 (ligand) MHPIPDSSPLLQFGGQVRQRYLYTDDAQQTEAHLEIREDGTVGGAADQSPESLLQLKALKPGVIQILGVKTSRFLCQRPDGALYGSLHFDPEACSFRELLLEDGYNVYQSEAHGLPLHLSGGPAPRGPARFLPLPGLPPAPPEPPGILAPQPPDVGSSDPLSMVEPSQGRSPSYAS
2. Compound 10 (ligand) MHPIPDSSPLLQFGGQVRQRYLYTDDAQQTEAHLEIREDGTVGGAADQSPESLLQLKALKPGVIQILGVKTSRFLCQRPDGALYGSLHFDPEACSFRELLLEDGYNVYQSEAHGLPLHLGSGGPARFLPLPGLPPAPPEPPGILAPQPPDVGSSDPLSMVEPSQGRSPSYAS
3. Compound 12 (ligand) MHPIPDSSPLLQFGGQVRQRYLYTDDAQQTEAHLEIREDGTVGGAADQSPESLLQLKALKPGVIQILGVKTSRFLCQRPDGALYGSLHFDPEACSFRELLLEDGYNVYQSEAHGLPLHLPHHSGRDPAPRGPARFLPLPGLPPAPPEPPGILAPQPPDVGSSDPLSMVEPSQGRSPSYAS

**Result**
1. 4.1
2. 21.9
3. 31.9

Every entry's value here was drawn from patent US12247058.
